FYI, the data here is from ChEMBL document CHEMBL4513216.

- Test system: Plasmodium berghei
- method: Screen against P. berghei liver stage (PbLuc), transformed with Luciferase, at 10uM
- Assay type: functional, HepG2
- test.parameters: tested at 10 uM
In all, about 69,000 compounds went through this assay and about 8,600 (12%) showed an effect of 50% or more. The sample holds strong results, similar compounds and a random draw of the others, so the mix is not that of the screen.
measurement.kind: INHIBITION (%)
Enter your answer as a number in %; do not include the unit.

Example compounds with recorded INHIBITION:
{"compound": "Cc1csc(CN2CC[C@H]3C[C@@H](c4noc(C)n4)O[C@@H]3C2)n1", "INHIBITION (%)": 29}
{"compound": "CC(C#N)CSc1ccccc1NCC(=O)Nc1ccccc1 (configuration not stated)", "INHIBITION (%)": 26.5}
{"compound": "Cc1ccc(-n2ncc(C(=O)N3CCCC3c3cnn(C)c3)c2C)cc1 (configuration not stated)", "INHIBITION (%)": 2.3}
{"compound": "CC(C#N)CSc1ccccc1NCC(=O)NCc1cccs1 (configuration not stated)", "INHIBITION (%)": 58.3}
{"compound": "Cc1noc([C@@H]2C[C@H]3CN(Cc4ccc5c(c4)OCO5)C[C@H]3O2)n1", "INHIBITION (%)": 42.1}

Incoming: What INHIBITION value was documented for this compound, CC(C#N)CSc1ccccc1NCC(=O)NC1CCCCC1 (configuration not stated) ?
Outgoing: 54.4

Incoming: Looking for the measured INHIBITION of Cc1cnn(CC2CCCN2C(=O)c2csc(-c3nnc[nH]3)n2)c1 (configuration not stated) , can you help?
Outgoing: -73.2

Incoming: # input compound: CCC(C)c1csc(NC(=O)c2sc(-c3nnc[nH]3)nc2C)n1 (configuration not stated) ; wanted: its INHIBITION
Outgoing: 37.8

Incoming: Which measured INHIBITION value corresponds to Cn1cc(C(=O)N[C@@H]2CN(CC3CCOCC3)[C@@H]3CCCO[C@@H]32)cn1 ?
Outgoing: -14.4

Incoming: Entry under review: CC1CCCN(Cc2ccc(C(N)=O)cc2)C1 (configuration not stated) . Reported INHIBITION?
Outgoing: 50.5

Incoming: Given the entry CC(C)n1nc(CN2CCCC2)c2c1CN(CC1CC1)CC2 , report its measured INHIBITION.
Outgoing: 58.3

Incoming: Need INHIBITION of NC(=O)c1ccc(CN2CCCC(O)C2)cc1 (configuration not stated) , thanks.
Outgoing: -6.32

Incoming: // lookup INHIBITION for CC1(C(=O)NCc2cc(F)cc(F)c2)CCOCC1
Outgoing: 37.5

Incoming: // query INHIBITION value for entry CC1(C(=O)NCc2ccsc2)CCOCC1
Outgoing: 44.9

Incoming: Using the record for Cc1nccc([C@@H]2C[C@@H]3CCN(Cc4c(C)noc4C)C[C@H]3O2)n1 , report its INHIBITION.
Outgoing: 67.2

Incoming: Fill in: INHIBITION of Cn1ccnc1C(=O)N[C@@H]1CN(Cc2ccc(F)cc2)[C@@H]2CCCO[C@@H]21 is ___
Outgoing: 49.4

Incoming: INHIBITION for CN(C)c1cccc(C(=O)NCC2(O)CCOCC2)c1 ?
Outgoing: 58.3

Incoming: Endpoint output: INHIBITION of COC(=O)c1ccc(C(=O)NCC2(O)CCOCC2)cc1 . Value?
Outgoing: 36.3

Incoming: What measured INHIBITION goes with CCOc1ccccc1C(=O)NCc1nncn1C1CC1 ?
Outgoing: 11.4

Incoming: Query (compound): Cc1ccc(CN2C[C@H](NC(=O)c3nccn3C)[C@H]3OCCC[C@H]32)o1 ; field requested: INHIBITION
Outgoing: 75.6

Incoming: Record request: INHIBITION value, item Cc1nc(C2CCCN2CCOCC2CC2)no1 (configuration not stated)
Outgoing: -77.6

Incoming: Item under review: Cn1ccnc1C(=O)N[C@@H]1CN(Cc2ccoc2)[C@@H]2CCCO[C@@H]21 . Reported INHIBITION?
Outgoing: 29.4

Incoming: # INHIBITION lookup, item CN1CCCCC(C2CCN(S(=O)(=O)c3cn(C)cn3)CC2)C1=O (configuration not stated)
Outgoing: -23.4
